Quick list: MIC per entry.
Tested on: S. aureus IID 670 (Terajima)
PROCEDURE_TEXT: In vitro antibacterial activity, MIC (standard strain)
Format: cell-based
CONDITION_SET: Staphylococcus aureus, IID670, 10^6 cells/ml
Counter-ions that a name gives are not always drawn.

| COMPOUND | RESULT_UNITS | MIC |
| --- | --- | --- |
| CC1CN(c2c(F)cc3c(=O)c(C(=O)O)cn(C4CC4)c3c2Cl)CC(C)N1 (stereo not shown) [Example 6, hydrochloride] | µg/mL | 0.2 |
| CC1CN(c2c(F)cc3c(=O)c(C(=O)O)cn(C4CC4)c3c2Cl)CCN1 (stereo not shown) [Example 5, hydrochloride] | µg/mL | 0.1 |
| CC1CN(c2c(F)cc3c(=O)c(C(=O)O)cn(C4CC4)c3c2F)CCN1 (stereo not shown) | µg/mL | 0.2 |
| CC1CN(c2c(F)cc3c(=O)c(C(=O)O)cn(C4CC4)c3c2F)CC(C)N1 (stereo not shown) | µg/mL | 0.2 |
